# Procedure Summary: Toxicity using neurological impairment measured by rotarod test in mice
# Measurement Parameters: mouse, in vivo
Flag rule - TD50 less than 600 mg/kg flags T; the remaining entries get F.

Is TD50 of C[C@@H](NCc1ccc(SCc2ccccc2)cc1)C(N)=O strictly below 600 mg/kg? F

Lab note: TD50 threshold 600 mg/kg. Does this compound come in strictly under it? C[C@@H](NCc1ccc(OCCc2ccccc2)cc1)C(N)=O F

Hi there! Is TD50 for CNC(=O)[C@H](C)NCc1ccc(OCc2ccccc2)cc1 below 600 mg/kg, do you know? T

I'd appreciate it if you could check whether C[C@@H](NCc1ccc(OCc2ccccc2Cl)cc1)C(N)=O has TD50 smaller than 600 mg/kg. T

Please indicate whether the reported TD50 of CNC(=O)[C@@H](CO)NCc1ccc(OCc2cccc(F)c2)cc1 is strictly below 600 mg/kg. F

In the record for CNC(=O)[C@@H](CO)NCc1ccc(OCc2cccc(C(F)(F)F)c2)cc1 , is TD50 less than 600 mg/kg? F

Could you please tell me whether TD50 recorded for C[C@@H](NCc1ccc(Cc2ccccc2)cc1)C(N)=O is less than 600 mg/kg? F

Please state whether TD50 is below 600 mg/kg for NC(=O)N1c2ccccc2C=Cc2ccccc21 [CARBAMAZEPINE] T

Find out if reported TD50 for CNC(=O)[C@@H](CO)NCc1ccc(OCc2ccccc2F)cc1 is less than 600 mg/kg T

Consider the compound C[C@@H](NCc1ccc(CCc2ccccc2)cc1)C(N)=O . Is its TD50 strictly less than 600 mg/kg? F

Determine whether this compound shows TD50 lower than 600 mg/kg (ties excluded): NC(=O)CNCc1ccc(OCc2ccccc2)cc1 T

For this compound, is TD50 lower than 600 mg/kg? C[C@@H](NCc1ccc(OCc2cccc(F)c2)cc1)C(N)=O F

Below 600 mg/kg on TD50? Entry Nc1nnc(-c2cccc(Cl)c2Cl)c(N)n1 [LAMOTRIGINE] T

Lab note: TD50 threshold 600 mg/kg. Does this compound come in strictly under it? C[C@@H](NCc1ccc(OCc2ccccc2F)cc1)C(N)=O T

###

# Test system: Mus musculus
# Procedure Summary: Compound was tested for anticonvulsant potency using the 3-MPA (3-mercaptopropionic acid) test in mice upon peroral administration
# Assay type: functional
# Measurement Parameters: po
Assign log10 of ED50 to each entry below.
In plain terms, each number is the log10 of measured ED50 in mg/kg.

O=C1NC(=O)C(c2ccccc2)(c2ccccc2)N1	1.05
CCCC(CCC)C(=O)O	2.22
CN1C(=O)CN=C(c2ccccc2)c2cc(Cl)ccc21	-0.21
NC(=O)N1c2ccccc2C=Cc2ccccc21 [CARBAMAZEPINE]	1.30
C[C@@H](NCc1ccc(OCc2cccc(F)c2)cc1)C(N)=O	1.33

Please give log10 of ED50, item by item, for the list that follows.
1. C[C@@H](NCc1ccc(NCc2ccccc2)cc1)C(N)=O
2. C[C@@H](NCc1ccc(OCCCc2ccccc2)cc1)C(N)=O
3. CNC(=O)[C@@H](CO)NCc1ccc(OCc2cccc(F)c2)cc1

1.21
1.21
1.55

###

# Test system: Mus musculus
# Procedure Summary: Compound was tested for anticonvulsant potency using the intravenous-BIC (bicuculline) test in mice; 5 out of 20 mice exhibited anticonvulsant activity
# Assay type: functional
Property Label: ED50 (mg/kg)
Answers are plain numbers, in mg/kg.

C[C@@H](NCc1ccc(/C=C/c2ccccc2)cc1)C(N)=O	400
NC(=O)CNc1ccc(OCc2cccc(Cl)c2)cc1	400

Now examine the next entry.
For this compound ( NC(=O)CNC(=O)c1ccc(OCc2cccc(Cl)c2)cc1 ), measured ED50 is 400

###

# Procedure Summary: Toxicity using neurological impairment measured by rotarod test in mice
# Measurement Parameters: mouse, in vivo
Hi! Could you tag entries with TD50 below 600 mg/kg as Y, and those at or above as N? Much appreciated.

C[C@@H](NCc1ccc(NCc2ccccc2)cc1)C(N)=O	Y

Please determine if CC[C@@H](NCc1ccc(OCc2ccccc2)cc1)C(N)=O is below 600 mg/kg in terms of TD50. Y

Dear colleague, could you confirm whether TD50 of CNC(=O)[C@@H](CO)NCc1ccc(OCc2cccc(C)c2)cc1 falls below 600 mg/kg? Thanks. N

Here's an entry: CCCC(CCC)C(=O)O . Is its TD50 below 600 mg/kg? N

Values compiled from ChEMBL document CHEMBL1131598.
